- experiment: Pharmacokinetics of MB-905 in plasma of the rat
- Format: in vivo
- recorded.conditions: both sexes, Sprague Dawley, rat, plasma, iv, 3 mg/kg, 3 mg/kg (i.v.), read-out: Vz
readout.name: Vd
Param answer (str): number followed by unit.

Field request: Vd | item: c1coc(CNc2ncnc3[nH]cnc23)c1
13.4 L/kg

* * *

- experiment: Toxicokinetics in the 28-day study
- Format: in vivo, mice
- recorded.conditions: female, CD1, mouse, in vivo, po, 80 mg/kg, female mice; 80 mg/kg; Day 0
readout.name: AUC (ng·h/mL)
Provide the reading as a plain figure in ng·h/mL.

Field request: AUC | item: c1coc(CNc2ncnc3[nH]cnc23)c1
5010

* * *

- experiment: Cytotoxicity assay (XTT) in Calu-3 cells
- Assay type: cell-based, human
- recorded.conditions: human, Calu-3, daily treatment
readout.name: CC50 at 3 days
Param answer (str): number followed by unit.

Field request: CC50 at 3 days | item: CC(C)OC(=O)[C@H](C)NP(=O)(OC[C@H]1O[C@@H](n2cnc3c(NCc4ccco4)ncnc32)[C@H](O)[C@@H]1O)Oc1ccccc1 (stereo partly shown) [MB-711, kinetin riboside monophosphoramidate]
580 µM

* * *

- experiment: Pharmacokinetics of MB-905 in three pre-formulations in mice
- Assay type: in vivo
- recorded.conditions: mouse, plasma, po, 30 mg/kg, 5% ethanol, 30% Propylene Glycol, 45% PEG 400, 20% water, 30 mg/kg (p.o.)
readout.name: Tmax (min)
Provide the reading as a plain figure in min.

Field request: Tmax | item: c1coc(CNc2ncnc3[nH]cnc23)c1
15

* * *

- experiment: Pharmacokinetics of MB-905 in plasma of the rat
- Assay type: in vivo
- recorded.conditions: both sexes, Sprague Dawley, rat, plasma, po, 30 mg/kg, 30 mg/kg (v.o.)
readout.name: AUC (ng·h/mL)
Provide the reading as a plain figure in ng·h/mL.

Field request: AUC | item: c1coc(CNc2ncnc3[nH]cnc23)c1 [MB-905, kinetin]
1500

* * *

- experiment: Toxicokinetics in the 28-day study
- Type: in vivo, mice
- recorded.conditions: female, CD1, mouse, in vivo, po, 80 mg/kg, female mice; 80 mg/kg; Day 28
readout.name: Cmax (ng/mL)
Provide the reading as a plain figure in ng/mL.

Field request: Cmax | item: c1coc(CNc2ncnc3[nH]cnc23)c1 [MB-905, kinetin]
464

* * *

- experiment: Toxicokinetics in the 28-day study
- Format: in vivo, mice
- recorded.conditions: male, CD1, mouse, in vivo, po, 10 mg/kg, male mice; 10 mg/kg; Day 0
readout.name: Tmax (min)
Provide the reading as a plain figure in min.

Field request: Tmax | item: c1coc(CNc2ncnc3[nH]cnc23)c1
15

* * *

- experiment: Toxicokinetics in the 28-day study
- Format: in vivo, mice
- recorded.conditions: female, CD1, mouse, in vivo, po, 250 mg/kg, female mice; 250 mg/kg; Day 0
readout.name: Cmax (ng/mL)
Provide the reading as a plain figure in ng/mL.

Field request: Cmax | item: c1coc(CNc2ncnc3[nH]cnc23)c1
898

* * *

- experiment: Toxicokinetics in the 28-day study
- Assay type: in vivo, mice
- recorded.conditions: male, CD1, mouse, in vivo, po, 250 mg/kg, male mice; 250 mg/kg; Day 28
readout.name: half-life (h)
Provide the reading as a plain figure in h.

Field request: half-life | item: c1coc(CNc2ncnc3[nH]cnc23)c1
1.53
